target: Follistatin-related protein 3 (Homo sapiens) (UniProt O95633); test: FSTL3 binders on small-molecule microarrays, primary screen, biochemical, small-molecule microarray, 635 nm fluorescence (AID 1105); settings: FSTL3 binding, higher = more signal;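 also: score merges emission near 667 nm and signal to noise per printed spot across three slides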
Sequence (O95633 whole entry, looked up): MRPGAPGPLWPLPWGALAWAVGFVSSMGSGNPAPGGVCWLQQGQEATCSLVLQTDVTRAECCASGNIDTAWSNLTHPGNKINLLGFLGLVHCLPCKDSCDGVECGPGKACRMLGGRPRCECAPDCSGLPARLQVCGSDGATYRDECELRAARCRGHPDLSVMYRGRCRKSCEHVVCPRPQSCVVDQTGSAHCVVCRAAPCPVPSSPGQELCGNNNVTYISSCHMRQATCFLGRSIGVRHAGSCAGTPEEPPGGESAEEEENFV
Entry flag: YES if composite z-score reaches 0.5; NO if it does not.

compound	label_value
COC(=O)CC=C[C@@H](C)[C@@H](C=NO[C@H](C)c1cn([C@@H]2COC[C@H]2O)nn1)NS(=O)(=O)c1ccc(C)cc1	YES
CO[C@H]1COC(=O)CCC[C@@H](C)[C@H](OC)COC(=O)[C@@H](C)NC(=O)CC=C[C@@H]1C	YES
CC(CCC(=O)OC[C@H]1O[C@H](C#Cc2ccccc2)C=C[C@@H]1Oc1ccc(C)cc1)=NO[C@H](C)c1cn([C@H](CO)Cc2ccccc2)nn1	YES
COC(=O)[C@H](C)NC(=O)CCC1CC(OC(=O)NCc2ccc3c(c2)OCO3)CC2(CCCC(COC(=O)NCCc3ccccc3OC)O2)O1 (some centres undefined)	NO
CCOC(=O)NN=C1C[C@@H](O)[C@@H](O)[C@@H]2[C@@H]3C(=O)N(c4cccc(Oc5ccccc5)c4)C(=O)[C@@H]3CC[C@@H]12	NO
C[C@@H](c1ccccc1)N1C(=O)[C@H]2[C@H]3[C@H](O)[C@H](O)CC(=O)[C@H]3CC[C@H]2C1=O	YES
COc1cccc([C@@H]2Oc3ccc(OC)cc3C(=O)[C@H]2O)c1	YES
CC(C)=CCCC(C)=CCON=C1C[C@@H](O)[C@@H](O)[C@@H]2[C@@H]3C(=O)N(Cc4ccccc4)C(=O)[C@@H]3CC[C@H]12	YES
C#CCCCON=C1C[C@@H](O)[C@@H](O)[C@@H]2[C@@H]3C(=O)N(Cc4ccccc4)C(=O)[C@@H]3CC[C@@H]12	NO
COc1ccc(O[C@@H]2[C@H](O)CO[C@H]2C=Cc2ccccc2)cc1	NO
CC(CCN1CCc2nc(-c3ccccc3)c(-c3ccccc3)cc2C1)=NOC[C@@H](O)[C@H]1O[C@@H]2OC(C)(C)O[C@@H]2[C@H]1O	YES
CC(=O)OC[C@H]1OC(ON=CC[C@@H]2C=C[C@H](OC(C)=O)[C@@H](COC(C)=O)O2)[C@H](OC(C)=O)[C@@H](OC(C)=O)[C@@H]1OC(C)=O (some centres undefined)	NO
CCOC(=O)[C@H](CC(C)C)NC(=O)CCC1CC(OC(=O)NCCc2ccc(F)cc2)CC2(CCCC(COC(=O)NCCc3ccc(Cl)cc3)O2)O1 (some centres undefined)	YES

----------
target: Neurogenic locus notch homolog protein 3 (Homo sapiens); assay: NOTCH3 binders on small-molecule microarray, primary screen, biochemical, 635/667 nm fluorescence (AID 1096); settings: NOTCH3 binding, 635 nm fluorescence, higher = more signal
Entry flag: YES if composite z-score reaches 0.4; NO if it does not.

> print(dat)
                                    molecule                          target.or.system  label.value
 1  CC(C)=CCCC(C)=CCON=C1C[C@@H](O)[C@@H](O)[C@@H]2[C@@H]3C(=O)N(c4ccc(F)cc4F)C(=O)[C@@H]3CC[C@H]12  Neurogenic locus notch homolog protein 3 (Homo sapiens)          YES
 2  CO[C@H](C1CCCCC1)[C@H](C)C=CCC(=O)OCCCc1ccccc1  Neurogenic locus notch homolog protein 3 (Homo sapiens)           NO
 3  CCOC(=O)[C@H](CC(C)C)NC(=O)CCC1CC(OC(=O)NCc2ccc3c(c2)OCO3)CC2(CCCC(COC(=O)NCC3CCCCC3)O2)O1 (stereo not given in full)  Neurogenic locus notch homolog protein 3 (Homo sapiens)          YES
 4  O=c1n(Cc2cc3c(cc2Cl)OCO3)c(=O)n2n1CC[C@@H]1C(=NOC[C@@H](O)COCc3ccco3)[C@H]3O[C@H]3[C@@H](O)[C@@H]12  Neurogenic locus notch homolog protein 3 (Homo sapiens)          YES
 5  Cc1cc2c(nc1C)CCCCN2CC(C)ON=C1[C@H]2CCn3c(=O)n(-c4ccccc4)c(=O)n3[C@H]2[C@H](O)[C@@H]2O[C@H]12 (stereo not given in full)  Neurogenic locus notch homolog protein 3 (Homo sapiens)           NO
 6  C=CC[C@@H]1C=C[C@H](ON=C(C)CCN2CCc3nc(-c4ccccc4)c(-c4ccccc4)cc3C2)[C@@H](CO)O1  Neurogenic locus notch homolog protein 3 (Homo sapiens)          YES
 7  CCN1C(=O)[C@H]2[C@H]3[C@H](O)[C@H](O)CC(=NO[C@@H](C)c4cn([C@H](CO)Cc5ccccc5)nn4)[C@@H]3CC[C@H]2C1=O  Neurogenic locus notch homolog protein 3 (Homo sapiens)          YES
 8  Cc1ccc(S(=O)(=O)N[C@H]2COC(=O)CC=C[C@@H](C)COC(=O)CC=C[C@@H]2C)cc1  Neurogenic locus notch homolog protein 3 (Homo sapiens)           NO
 9  COc1cccc([C@@H]2Oc3ccc(OC)cc3C(=O)[C@H]2O)c1  Neurogenic locus notch homolog protein 3 (Homo sapiens)          YES
10  COC(=O)CC=C[C@@H](C)[C@@H](C=NO[C@@H]1O[C@H](COC(C)=O)[C@@H](OC(C)=O)[C@H](OC(C)=O)[C@H]1OC(C)=O)NS(=O)(=O)c1ccc(C)cc1  Neurogenic locus notch homolog protein 3 (Homo sapiens)          YES
11  COc1cccc([C@H]2Oc3ccc(OC)cc3C(=NOC[C@@H](O)COCc3ccco3)[C@@H]2O)c1  Neurogenic locus notch homolog protein 3 (Homo sapiens)           NO
12  O=C1[C@H]2[C@H]3[C@H](O)[C@H](O)CC(=NOC[C@@H](O)COCc4ccco4)[C@H]3CC[C@H]2C(=O)N1c1ccc(F)cc1F  Neurogenic locus notch homolog protein 3 (Homo sapiens)           NO
13  C=COC[C@@H]1CN2[C@@H](CC[C@@H](C)[C@@H]2c2ccc(Br)cc2)C(=O)O1  Neurogenic locus notch homolog protein 3 (Homo sapiens)           NO
14  COc1ccc(COC(=O)NN=C2C[C@@H](O)[C@@H](O)[C@@H]3[C@@H]4C(=O)N(c5cccc(Oc6ccccc6)c5)C(=O)[C@@H]4CC[C@@H]23)cc1  Neurogenic locus notch homolog protein 3 (Homo sapiens)           NO
15  C#CCCCON=C1C[C@@H](O)[C@@H](O)[C@@H]2[C@@H]3C(=O)N(CC)C(=O)[C@@H]3CC[C@@H]12  Neurogenic locus notch homolog protein 3 (Homo sapiens)          YES

----------
experiment: cell viability in Huh7 cells, primary screen, cytotoxicity control for HCV replication inhibitor project, CellTiter-Glo luminescence, basal, 48 h (AID 1143); conditions: Huh7 HCV replicon, higher = more signal, called active from +8 up or from −8 down;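 also: Huh7 hepatoma cells carrying a hepatitis C replication reporter with no stimulus; test concentration not given here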
observable: z-score

> print(dat)
                                    molecule  observable  measured
 1  CCOC(=O)[C@H](Cc1ccccc1)NC(=O)CCC1CC(OC(=O)NCCc2ccc(F)cc2)CC2(CCCC(COC(=O)NCCc3ccc(Cl)cc3)O2)O1 (stereo partly drawn)     z-score   -0.0147
 2  O=c1n(Cc2cc3c(cc2Cl)OCO3)c(=O)n2n1CC[C@@H]1C(=NOCc3ccccc3)[C@H]3O[C@H]3[C@@H](O)[C@@H]12     z-score    -0.742
 3  COc1ccc(O[C@H]2C=C[C@@H](c3ccccc3)O[C@@H]2CON=C2[C@H]3CCn4c(=O)n(-c5ccccc5)c(=O)n4[C@H]3[C@H](O)[C@@H]3O[C@H]23)cc1     z-score     -1.53
 4  Cc1cc2c(nc1C)CCCCN2CC(C)ON=C[C@@H](C)[C@H](OCc1ccccc1)C(C)C (stereo partly drawn)     z-score     -4.86
 5  COc1ccc(COC(=O)NN=C2C[C@@H](O)[C@@H](O)[C@@H]3[C@@H]4C(=O)N(c5ccc(F)cc5F)C(=O)[C@@H]4CC[C@H]23)cc1     z-score     -1.64
 6         COC(=O)C=CCCc1coc(C=CCNC(=O)OC)n1     z-score   -0.0328
 7  O=C1[C@H]2[C@H]3[C@H](O)[C@H](O)CC(=NOC[C@@H](O)COCc4ccco4)[C@H]3CC[C@H]2C(=O)N1Cc1ccccc1     z-score    -0.734
 8  CC(C)CON=C1C[C@@H](O)[C@@H](O)[C@@H]2[C@@H]3C(=O)N(c4ccc(F)cc4F)C(=O)[C@@H]3CC[C@H]12     z-score     -0.86
 9  O=C(NN=C1C[C@@H](O)[C@@H](O)[C@@H]2[C@@H]3C(=O)N(C4CCCCC4)C(=O)[C@@H]3CC[C@H]12)OCc1ccccc1     z-score    0.0552
10  CCOC(=O)NN=C1C[C@@H](O)[C@@H](O)[C@@H]2[C@@H]3C(=O)N([C@@H](C)c4ccccc4)C(=O)[C@@H]3CC[C@H]12     z-score    -0.339
11  CO[C@H]1COC(=O)[C@@H](C)COC(=O)[C@H](C)NC(=O)CC=C[C@H]1C     z-score    -0.378
12  CCOC(=O)[C@H](CC(C)C)NC(=O)CCC1CC(OC(=O)NCc2cccc3ccccc23)CC2(CCCC(COC(=O)NCCc3ccc(Cl)cc3)O2)O1 (stereo partly drawn)     z-score    -0.933
13  O=C(NN=C1C[C@@H](O)[C@@H](O)[C@@H]2[C@@H]3C(=O)N(Cc4ccccc4)C(=O)[C@@H]3CC[C@@H]12)OCc1ccccc1     z-score    -0.381
14  COCOc1ccc(Br)cc1C(=O)[C@@H]1O[C@H]1c1cccc(OC)c1     z-score     -1.97
15  O=C1C[C@@H](O)[C@@H](O)[C@@H]2[C@@H]3C(=O)N(C[C@@H]4CCCO4)C(=O)[C@@H]3CC[C@H]12     z-score     0.114
16  CON=C1[C@H]2CCn3c(=O)n(-c4ccccc4)c(=O)n3[C@H]2[C@H](O)[C@@H]2O[C@H]12     z-score     0.653
17  COC(=O)[C@@H]1CC[C@H](C)[C@@H](c2ccc(C)cc2)N1C(=O)c1ccc(C=NOCC[C@@H]2C=C[C@H](OC(C)=O)[C@@H](COC(C)=O)O2)cc1     z-score    -0.689
18  COC(=O)CC=C[C@@H](C)[C@@H](C=NO[C@H](C)c1cn([C@H](CO)Cc2ccccc2)nn1)OC     z-score    -0.742
19  CCc1cc2c(nc1CC)CCN(CCC(C)=NO[C@H](C)c1cn([C@H](CO)Cc3ccccc3)nn1)C2     z-score    -0.225
20  C=CC[C@@H]1C=C[C@H](ON=C(C)CCC(=O)OC[C@H]2O[C@H](c3ccccc3)C=C[C@@H]2Oc2ccc(OC)cc2)[C@@H](CO)O1     z-score     -1.08
21  C=CC[C@@H]1C=C[C@H](ON=C[C@@H](C)[C@H](OCc2ccccc2)C(C)C)[C@@H](CO)O1     z-score     -1.39
22  COC(=O)[C@H](C)NC(=O)CCC1CC(OC(=O)NCc2cccc3ccccc23)CC2(CCCC(COC(=O)NCC(c3ccccc3)c3ccccc3)O2)O1 (stereo partly drawn)     z-score    -0.145
23  CC(C)(C)N1C(=O)[C@H]2[C@H]3[C@H](O)[C@H](O)CC(=NO[C@@H]4O[C@H](CO)[C@@H](O)[C@H](O)[C@H]4O)[C@H]3CC[C@H]2C1=O     z-score     -2.05
24  C#CCCCON=C1C[C@@H](O)[C@@H](O)[C@@H]2[C@@H]3C(=O)N(c4cccc(Oc5ccccc5)c4)C(=O)[C@@H]3CC[C@H]12     z-score    -0.593
25  CCOC(=O)NN=C1C[C@@H](O)[C@@H](O)[C@@H]2[C@@H]3C(=O)N(C(C)(C)C)C(=O)[C@@H]3CC[C@H]12     z-score   -0.0395
26  CCCNC(=O)OC[C@H]1O[C@H](CCON=C(C)CCN2CCCc3nc(C)c(C)cc32)C=C[C@@H]1Oc1ccc(OC)cc1     z-score     -2.37
27  COc1ccc(O[C@H]2C=C[C@@H](c3ccccc3)O[C@@H]2CON=C(C)CCC(=O)OC[C@H]2O[C@H](c3ccccc3)C=C[C@@H]2Oc2ccc(OC)cc2)cc1     z-score    -0.461
28  CCN1C(=O)[C@H]2[C@H]3[C@H](O)[C@H](O)CC(=O)[C@H]3CC[C@H]2C1=O     z-score      0.89

This collection of values is drawn from PubChem BioAssay.
